Target: T1, human CDH6 on cells (human, UniProt P55285 54-790)
T1 sequence: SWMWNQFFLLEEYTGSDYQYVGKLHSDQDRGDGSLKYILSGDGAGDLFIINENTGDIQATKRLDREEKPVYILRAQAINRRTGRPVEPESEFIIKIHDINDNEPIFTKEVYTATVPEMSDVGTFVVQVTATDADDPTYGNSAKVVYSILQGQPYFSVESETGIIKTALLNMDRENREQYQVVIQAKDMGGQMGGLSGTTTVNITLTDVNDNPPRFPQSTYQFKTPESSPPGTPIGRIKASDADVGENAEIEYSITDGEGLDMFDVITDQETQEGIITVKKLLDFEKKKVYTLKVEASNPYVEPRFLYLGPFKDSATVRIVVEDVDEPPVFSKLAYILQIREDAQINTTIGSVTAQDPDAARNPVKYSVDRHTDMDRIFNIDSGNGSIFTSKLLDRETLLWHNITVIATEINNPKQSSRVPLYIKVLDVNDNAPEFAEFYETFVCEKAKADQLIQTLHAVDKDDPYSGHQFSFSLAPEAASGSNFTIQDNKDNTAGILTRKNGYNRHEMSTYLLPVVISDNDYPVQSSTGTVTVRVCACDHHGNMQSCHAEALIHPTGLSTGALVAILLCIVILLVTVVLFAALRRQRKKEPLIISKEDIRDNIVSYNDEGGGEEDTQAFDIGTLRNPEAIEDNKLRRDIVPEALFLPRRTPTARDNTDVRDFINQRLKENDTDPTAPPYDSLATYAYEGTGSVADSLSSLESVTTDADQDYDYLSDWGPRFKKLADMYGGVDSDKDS
Assay: cell-based or functional assay
For each of the binders below, state its percent inhibition at 1.22 nM ADC, SNU8 cells.
Numbers only, in %.

BINDER	MEASUREMENT
NOV0689-SMCC-DM1 (antibody, human IgG1, lambda, V domains shown, SMCC-DM1 on primary amines, sites not stated) VH: QVQLLESGGGLVQPGGSLRLSCAASGFTFSSFAMNWVRQAPGKGLEWVSVISSSGSNTNYADSVKGRFTISRDNSKNTLYLQMNSLRAEDTAVYYCARPSYFQAMDYWGQGTLVTVSS VL: DIVLTQPPSVSGAPGQRVTISCSGSSSNIGSNFVSWYQQLPGTAPKLLIYDNSNRPSGVPDRFSGSKSGTSASLAITGLQAEDEADYYCSSYDSFDHSWVFGGGTKLTVLG	10.3
NOV0713-SMCC-DM1 (antibody, human IgG1, lambda, V domains shown, SMCC-DM1 on primary amines, sites not stated) VH: QVQLQQSGPGLVKPSQTLSLTCAISGDSVSSNSAAWNWIRQSPSRGLEWLGRIYYRSKWYNDYAVSVKSRITINPDTSKNQFSLQLNSVTPEDTAVYYCARGLVGRYGQPYHFDVWGQGTLVTVSS VL: DIELTQPPSVSVSPGQTASITCSGDNLRSYYVHWYQQKPGQAPVLVIYGNNKRPSGIPERFSGSNSGNTATLTISGTQAEDEADYYCGVYTLSSVVFGGGTKLTVLG	7.79

Query binder follows.
If you can, please state the reported percent inhibition at 1.22 nM ADC, SNU8 cells value of NOV0685-SMCC-DM1 (antibody, human IgG1, lambda, V domains shown, SMCC-DM1 on primary amines, sites not stated) VH: QVQLQQSGPGLVKPSQTLSLTCAISGDSVSGNSAAWNWIRQSPSRGLEWLGIIYYRSKWYNDYAVSVKSRITINPDTSKNQFSLQLNSVTPEDTAVYYCARSSYSGGFDYWGQGTLVTVSS VL: DIVLTQPPSVSGAPGQRVTISCSGSSSNIGSYYVSWYQQLPGTAPKLLIYYNTKRPSGVPDRFSGSKSGTSASLAITGLQAEDEADYYCQSWDKLGKGYVFGGGTKLTVLG . -0.1
